# Test system: TNF-α
# Assay info: LPS stimulation of TNF production by U937 cells
# Format: cell-based, human
# Condition parameters: Homo sapiens, U-937, TNF production, LPS-stimulated human U937 cells; read-out: U937 Cell IC50
Quick list: IC50 per entry.
Readout: IC50 (nM)

• COC(=O)c1ccccc1S(=O)(=O)NCc1[nH]nc(-c2ccc(F)cc2)c1-c1ccncc1 = 4850
• C[C@@H](NS(=O)(=O)Cc1ccccc1)c1[nH]nc(-c2ccc(F)cc2)c1-c1ccncc1 = 50
• C=CCOC(=O)N[C@H](C)c1[nH]nc(-c2ccc(F)cc2)c1-c1ccncc1 = 660
• C[C@@H](NS(=O)(=O)c1ccc(F)cc1)c1[nH]nc(-c2ccc(F)cc2)c1-c1ccncc1 = 900
• CCOC(=O)N[C@H](C)c1[nH]nc(-c2ccc(F)cc2)c1-c1ccncc1 = 740
• COC(=O)CCC(=O)NCc1[nH]nc(-c2ccc(F)cc2)c1-c1ccncc1 = 10000
• CC(C)S(=O)(=O)NCc1[nH]nc(-c2ccc(F)cc2)c1-c1ccncc1 = 5000
• C[C@@H](NS(C)(=O)=O)c1[nH]nc(-c2ccc(F)cc2)c1-c1ccncc1 = 440
• CC(=O)O[C@@H](C)C(=O)NCc1[nH]nc(-c2ccc(F)cc2)c1-c1ccncc1 = 6510
• O=S(=O)(NCc1[nH]nc(-c2ccc(F)cc2)c1-c1ccncc1)c1ccc(F)cc1 = 2780
• C[C@@H](NC(=O)c1ccccc1C(F)(F)F)c1[nH]nc(-c2ccc(F)cc2)c1-c1ccncc1 = 640

----------
Quick list: pIC50 per entry.
# System under test: human p38 kinase alpha (Homo sapiens, UniProt Q16539)
# Construct: The coding region of the human p38a cDNA was obtained by PCR-amplification from RNA isolated from the human monocyte cell line THP.1; GST (N); made in house; host or cells: E. coli DH10B
# Sequence (Q16539 whole entry): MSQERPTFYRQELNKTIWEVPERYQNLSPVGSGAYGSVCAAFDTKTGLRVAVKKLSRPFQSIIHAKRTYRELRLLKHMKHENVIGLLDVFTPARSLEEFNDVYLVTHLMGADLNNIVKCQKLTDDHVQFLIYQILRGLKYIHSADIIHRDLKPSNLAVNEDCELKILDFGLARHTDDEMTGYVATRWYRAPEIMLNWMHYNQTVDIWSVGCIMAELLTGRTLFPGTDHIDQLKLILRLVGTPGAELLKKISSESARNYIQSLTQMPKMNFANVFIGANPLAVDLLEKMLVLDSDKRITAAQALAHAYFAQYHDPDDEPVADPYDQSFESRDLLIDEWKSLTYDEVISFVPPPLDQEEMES
# Assay info: p38 kinase in vitro assay, phosphorylation of biotinylated PHAS-I with gamma 32P-ATP
# Format: biochemical
# Condition parameters: read-out: P38 alpha kinase IC50
pIC50: −log10 of the molar value.
Readout: pIC50

• COc1ccc(S(=O)(=O)NCc2[nH]nc(-c3ccc(F)cc3)c2-c2ccncc2)cc1 = 6.34
• COc1ccc(S(=O)(=O)N[C@H](C)c2[nH]nc(-c3ccc(F)cc3)c2-c2ccncc2)cc1 = 6.77
• O=S(=O)(NCc1[nH]nc(-c2ccc(F)cc2)c1-c1ccncc1)c1ccccc1C(F)(F)F = 7.11
• C[C@@H](NC(=O)NCCc1ccccc1)c1[nH]nc(-c2ccc(F)cc2)c1-c1ccncc1 = 6.49
• C[C@@H](NC(=O)c1cccc(Br)c1)c1[nH]nc(-c2ccc(F)cc2)c1-c1ccncc1 = 6.28
• CC(C)N[C@H]1CC[C@@H](c2[nH]nc(-c3ccc(F)cc3)c2-c2ccncc2)CC1 = 7.57
• C[C@@H](NC(=O)c1ccccc1Br)c1[nH]nc(-c2ccc(F)cc2)c1-c1ccncc1 = 7.51
• N[C@H]1CC[C@@H](c2[nH]nc(-c3ccc(Cl)cc3)c2-c2ccncc2)CC1 = 7.62
• Fc1ccc(-c2n[nH]c(C3CCCNC3)c2-c2ccncc2)cc1 (stereo not drawn) = 7.43
• CC(C)c1cc(C(C)C)c(C(=O)NCc2[nH]nc(-c3ccc(F)cc3)c2-c2ccncc2)c(C(C)C)c1 = 5.74
• C[C@@H](NC(=O)c1cccc(F)c1)c1[nH]nc(-c2ccc(F)cc2)c1-c1ccncc1 = 7.03
• C[C@@H](NS(=O)(=O)c1ccccc1S(C)(=O)=O)c1[nH]nc(-c2ccc(F)cc2)c1-c1ccncc1 = 6.52
• CCCCOc1ccc(S(=O)(=O)N[C@H](C)c2[nH]nc(-c3ccc(F)cc3)c2-c2ccncc2)cc1 = 5.74
• O=C(NCc1[nH]nc(-c2ccc(F)cc2)c1-c1ccncc1)c1cc(C(F)(F)F)ccc1F = 5.13
